System: Bacillus subtilis
Assay: cleaved RNA product abundance (RNA/gDNA barcode ratio) relative to median wild-type variant (ratio to wild type); higher = more accumulation of the downstream cleavage product
Conditions: experiment (reporter, strain, medium): exp 4a: truncated aprE reporter, strain BJT201 with 2% xylose (RNase J1 expressed); cleavage site: cggR-gapA (positions -7 to +36 mutated)
Class condition met: cleaved RNA product abundance at least 0.2. Class condition not met: cleaved RNA product abundance below 0.2.

# example entries with known answers
RESIDUE SEQUENCE	CATEGORY
ACAGACGAAGGAGCCGCAAAGAAGTTATTAAGGGATGAATGATCCCTCAATATAAATATCTCTCACTTATTTAAA	condition met
ACAGACGAAGGAGCCGCAAAGAAGTTATTAACGGATGAATAATTCCTCAATATAAATATCTCTCACTTATTTAAA	condition not met
ACAGACGAAGGAGCCGCTAAGATGTTATTAAGGGATGAATAATCCCTCAATATAAATATCTCTCACTTATTTAAA	condition met
ACAGACGAAGGAGCCGCAAAGAAGTTATTTAGGGATGAATAATCCCTCAATATACATATCTCTCACTTATTTAAA	condition met

query: Hi team, for "ACAGACGAAGGAGCCGCAAAGAAGTTATTAAGAGATGAATAATCCCTCAATATAATTATCTCTCACTTATTTAAA" , is the recorded cleaved RNA product abundance at or above 0.2?
result: condition not met

query: Hi team, for "ACAGACGAAGGAGCCGCAAAAAAGTTATTACGGGATGAATAATCCCTCAATATAAATATCTCTCACTTATTTAAA" , is the recorded cleaved RNA product abundance at or above 0.2?
result: condition met

query: Hi team, for "ACAGACGAAGGAGCCGCAAAGAAGTGATTAAGGGATAAATAATCCCTCAATATAAATATCTCTCACTTATTTAAA" , is the recorded cleaved RNA product abundance at or above 0.2?
result: condition met
